We begin with a simple list: items and their reported inhibition.
- TARGET: Cyclic GMP-AMP synthase (Mus musculus)
- ASSAY_REMARKS: inhibitors of Mus musculus cyclic GMP-AMP synthase, initial high-throughput assay, cell-free, RapidFire MS (AID 1259397);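 further: enzyme stimulated by 45 bp dsDNA with ATP and GTP substrates; cGAMP share of summed cGAMP plus half ATP and half GTP signals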
- REPORTED_CONDITIONS: recombinant mouse cGAS, cGAMP by RapidFire MS; at 12.5 µM; stronger effect = higher value
The campaign covered roughly 130,000 compounds. About 230 (0.18%) were called active. Many of the other results were omitted from the sample, so actives are more common in it than they were.
Entry rule: numbers only, all in %.

IN: For the molecule `Cc1cc(-n2cnnc2)ncc1-c1ccc(O)cc1` , give its reported inhibition.
OUT: -7.05

IN: Please give measured inhibition of the following entry: `O=C1NC(=O)C(=Cc2ccc(C(=O)O)cc2)S1`
OUT: 35.6

IN: # return recorded inhibition for input `C=CCNC(=O)c1cccnc1-c1ccc(OC)c2ncccc12`
OUT: -6.67

IN: Please give measured inhibition of the following entry: `CC(C)(C)n1ncc2c(=O)n(NC(=O)c3ccc(C(F)(F)F)cc3)cnc21`
OUT: -4.85

IN: Determine from records and report inhibition for `Cc1ccc(-c2nc(CCNC(=O)c3cccc(C)c3)cs2)cc1`
OUT: 5.19

IN: Fill in inhibition for record CN(C)c1ccc(N2CC(=O)C(c3nc(-c4cccc(Cl)c4)cs3)C2=N)cc1 (stereo unspecified)
OUT: -4.69

IN: Provide only the value of recorded inhibition for `COc1cc(C=C2SC(=S)NC2=O)cc(Br)c1O`
OUT: 12

IN: # return recorded inhibition for input `CS(=O)(=O)c1ccc(CN2CCN3C(C(=O)N4CCOCC4)=COC3=NC2=O)cc1`
OUT: 62.5

IN: Give inhibition for the following molecule: `CCC(=O)N1CCN(c2ccc(Cl)cc2NC(=O)c2cccs2)CC1`
OUT: -6.87

IN: Assign inhibition to the following record: `COc1ccc(CCn2c(SCCO)nc3c2c(=O)n(C)c(=O)n3C)cc1`
OUT: -8.65

IN: Given the molecule `N#Cc1cccc(CN2CCN3C(C(=O)NCCCc4ccccc4)=COC3=NC2=O)c1` , write its reported inhibition.
OUT: -8.68

---

- TARGET: Cyclic GMP-AMP synthase (Mus musculus)
- ASSAY_REMARKS: inhibitors of Mus musculus cyclic GMP-AMP synthase, initial high-throughput assay, cell-free, RapidFire MS (AID 1259397)
- REPORTED_CONDITIONS: recombinant mouse cGAS, cGAMP by RapidFire MS; at 12.5 µM
Among all 130,000 compounds or so, about 230 (0.18%) were called active.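 Rule for the calls: active = inhibition of cGAS enzyme activity at or above 60%; inactive = the rest.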 What follows is part of a selection rich in actives, with near analogues and random picks from the rest.
# valid calls are active, inactive; nothing else

IN: Look up the recorded call for `COc1cc(NC(=O)[C@@H](C)N2Cc3ccc(NCC(C)C)nc3C2=O)cc(OC)c1` in this test.
OUT: inactive

---

- TARGET: Cyclic GMP-AMP synthase (Mus musculus) (UniProt Q8C6L5)
- Sequence (Q8C6L5 whole entry, looked up): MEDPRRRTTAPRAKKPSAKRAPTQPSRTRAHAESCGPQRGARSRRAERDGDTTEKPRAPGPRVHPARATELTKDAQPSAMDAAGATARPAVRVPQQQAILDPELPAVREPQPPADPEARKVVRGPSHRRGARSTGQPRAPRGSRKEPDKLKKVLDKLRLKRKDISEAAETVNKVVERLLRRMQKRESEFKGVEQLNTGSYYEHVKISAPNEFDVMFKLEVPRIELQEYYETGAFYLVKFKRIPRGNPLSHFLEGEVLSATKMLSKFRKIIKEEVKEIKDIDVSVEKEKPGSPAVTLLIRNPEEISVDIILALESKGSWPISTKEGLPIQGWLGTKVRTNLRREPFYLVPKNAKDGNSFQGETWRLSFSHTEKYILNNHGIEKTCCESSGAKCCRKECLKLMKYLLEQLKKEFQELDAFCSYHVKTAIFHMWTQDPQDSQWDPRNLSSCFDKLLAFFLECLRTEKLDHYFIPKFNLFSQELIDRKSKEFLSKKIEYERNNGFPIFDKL
- ASSAY_REMARKS: inhibitors of Mus musculus cyclic GMP-AMP synthase, initial high-throughput assay, cell-free, RapidFire MS (AID 1259397)
- REPORTED_CONDITIONS: recombinant mouse cGAS, cGAMP by RapidFire MS; at 12.5 µM
The campaign covered roughly 130,000 compounds. About 230 (0.18%) were called active.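 How the source made its calls: active means inhibition of cGAS enzyme activity at or above 60%; inactive means the rest.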 Shown is part of a subset that was picked to be rich in actives.
Choose one outcome from this list and give only that: active, inactive

Here's what some known entries look like.
N#Cc1ccc(C2=CSC3=NS(=O)(=O)CCN23)cc1 ... inactive
COc1cc(C)c(CN2CCN(C(=O)C3=COCCO3)CC2)cc1OC ... inactive
CCOc1ccc(CNC(=O)Cc2sc(=S)[nH]c2C)cc1F ... inactive

IN: What did the test return for CC(C)Nc1ncc(C(=O)N(Cc2ccco2)C(C)C(C)C)cn1 (configuration not stated) ?
OUT: inactive

IN: # fetch the recorded call for COC(=O)C[C@H]1[C@]2(C)C[C@@]34OC5(C)OC6(C(OC(C)=O)[C@@]3(OC(C)=O)[C@H]2OC(C)=O)C2CC(=O)O[C@@H](c3ccoc3)[C@]2(C)CCC6(O5)[C@]14C (some centres not stated) here
OUT: inactive

IN: Returns: the outcome recorded for `COc1cc(CNC(C)(C)CO)ccc1OCC(=O)Nc1ccc(C)cc1` in this assay.
OUT: inactive

IN: Write down the call the test reported for this compound. Item: Cc1cc(C)n(C(=O)C(C)n2cc([N+](=O)[O-])cn2)n1 (configuration not stated)
OUT: inactive

IN: So what was the verdict on `Fc1ccc(-c2[nH]ncc2CNCc2ccc(OC(F)(F)F)cc2)c(F)c1` in this test?
OUT: inactive

IN: For Cc1noc(C)c1C(=O)N1CCC1(C)C(=O)NS(=O)(=O)c1ccc(C#N)cc1 (configuration not stated) , which call appears in the assay record?
OUT: inactive

IN: # fetch the recorded call for CC(CC(=O)Nc1ccc(F)cc1)n1cncn1 (configuration not stated) here
OUT: inactive

---

// values below are reported inhibition
- TARGET: Cyclic GMP-AMP synthase (Mus musculus) (UniProt Q8C6L5)
- ASSAY_REMARKS: inhibitors of Mus musculus cyclic GMP-AMP synthase, initial high-throughput assay, cell-free, RapidFire MS (AID 1259397);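 further: enzyme stimulated by 45 bp dsDNA with ATP and GTP substrates; cGAMP share of summed cGAMP plus half ATP and half GTP signals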
- REPORTED_CONDITIONS: recombinant mouse cGAS, cGAMP by RapidFire MS; at 12.5 µM; stronger effect = higher value
In all, about 130,000 compounds went through this assay and about 230 (0.18%) were called active. This excerpt belongs to a sample that is enriched for actives.
Number in %, nothing else.

C=CCN(CC=C)C(=O)CSc1nc2scc(-c3ccc(F)cc3)c2c(=O)n1C ... 11.1
CS(=O)(=O)Cc1nc(-c2cc3c(cc2F)NC(=O)CC3)cs1 ... -12.8
COc1ccc(OC)c(NC(=O)C(C)N2CCN(Cc3ccc(Cl)s3)CC2)c1 (configuration not stated) ... -4.59
CCNC(=O)C1(C)CCN(Cc2ccc(C(=O)OCC)o2)C1 (configuration not stated) ... -5.82
CC(C)C(NC(=O)c1ccco1)C(=O)N1CC(C)(C)C1(C)C (configuration not stated) ... -1.92

IN: Fill in inhibition for record N#Cc1ccc(NC(c2ccccc2)c2ccccn2)nc1 (configuration not stated)
OUT: 9.13

IN: Given COc1ccccc1CNC(=O)CC1C(=O)NCCN1Cc1ccccc1C (configuration not stated) , respond with its inhibition.
OUT: -7.58

IN: Give the reported inhibition for this compound. CCOCC(O)CN1CCN(C(=O)Cn2ccccc2=O)CC1 (configuration not stated)
OUT: -5.1

IN: Check the records and state inhibition for `O=S(=O)(NCc1ccccc1)NCc1csc(-c2cnccn2)n1`
OUT: -34.7

IN: // Input: `CCNC(=O)c1cc(Cl)ccc1NS(=O)(=O)c1cn[nH]c1` . Output its inhibition only.
OUT: -6.14

IN: Provide one value: measured inhibition of `CCCn1c(=O)n(C)c(=O)c2c(SCC(=O)C(C#N)=C(C)N)nc(CC(C)C)nc21`
OUT: -1.38

---

Each entry below lists one item and its recorded inhibition value.
- TARGET: Cyclic GMP-AMP synthase (Mus musculus)
- ASSAY_REMARKS: inhibitors of Mus musculus cyclic GMP-AMP synthase, initial high-throughput assay, cell-free, RapidFire MS (AID 1259397);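 further: enzyme stimulated by 45 bp dsDNA with ATP and GTP substrates; cGAMP share of summed cGAMP plus half ATP and half GTP signals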
- REPORTED_CONDITIONS: recombinant mouse cGAS, cGAMP by RapidFire MS; at 12.5 µM; stronger effect = higher value
About 230 (0.18%) of roughly 130,000 compounds were called active. The sample as a whole holds a higher share of actives than the screen did.
Numbers only here, please. The scale is %.

IN: Provide measured inhibition on Cyclic GMP-AMP synthase (Mus musculus) for `O=C(NCCC(F)(F)F)c1csc(N2CCN(Cc3ccccc3)C2=O)n1` please.
OUT: -6.72

IN: Report inhibition under test system Cyclic GMP-AMP synthase (Mus musculus) for CCC(c1nnc(SC(C)C(N)=O)n1Cc1ccccc1)N(C)C (stereo unspecified) .
OUT: -4.22

IN: Answer briefly: inhibition recorded on Cyclic GMP-AMP synthase (Mus musculus) for `CC(=O)N(C)c1ccc(NC(=O)CNCCc2cccs2)cc1`
OUT: -11.1

IN: State the measured inhibition (Cyclic GMP-AMP synthase (Mus musculus)) of `Cc1cc2nc3c(=O)[nH]c(=O)nc-3n(C[C@H](O)[C@H](O)[C@H](O)CO)c2cc1C`
OUT: 87.9

---

- TARGET: Cyclic GMP-AMP synthase (Mus musculus)
- ASSAY_REMARKS: inhibitors of Mus musculus cyclic GMP-AMP synthase, initial high-throughput assay, cell-free, RapidFire MS (AID 1259397);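 further: enzyme stimulated by 45 bp dsDNA with ATP and GTP substrates; cGAMP share of summed cGAMP plus half ATP and half GTP signals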
- REPORTED_CONDITIONS: recombinant mouse cGAS, cGAMP by RapidFire MS; at 12.5 µM; stronger effect = higher value
The campaign covered roughly 130,000 compounds. About 230 (0.18%) were called active. The full list was thinned out, with actives kept by preference.
Attribute: inhibition
Just the number please, in %, no unit attached.

C#CC(CC)(CC)NC(=O)c1ccc(S(C)(=O)=O)cc1 ... 1.64
Cc1cc(C)n(CC2CCN(C(=O)C3CCN(S(C)(=O)=O)CC3)CC2)n1 ... -6.54
CC(C)Cc1ccc(C(=O)c2cccs2)cc1 ... 2.67
CCC(C(=O)N1CC=CCC1)n1cc(C(C)=O)c2ccccc21 (configuration not stated) ... -14.3
COCCn1c(-c2cc(OC)ccc2OC)csc1=Nc1ccc(OC)cc1 ... -17.5
CN1C(=O)Cc2cc(-c3csc(CCN4CCCCC4)n3)ccc21 ... -45.7
O=[N+]([O-])c1cc(S(=O)(=O)C(F)(F)F)ccc1N1CCCC1 ... -9.38
COc1ccc(-n2c(C)nc3ccc(NC(=O)Nc4ccc(C)cc4C)cc3c2=O)cc1 ... -11.4
CCCOc1ccc(C(=O)NNC(=O)c2ccc[nH]c2=O)cc1 ... 2.97
Cc1ccsc1C(CNC(=O)c1cnn2ccn(C)c12)N(C)C (configuration not stated) ... -20.4

IN: Determine its reported inhibition: COc1cc2c(cc1CNC1CCN(Cc3ccccc3)C1)OC(C)C2 (configuration not stated)
OUT: -13.3

IN: Return inhibition (reported value) for this compound: Cc1ccc(-c2cnc(C(O)c3cccc(C)c3C)[nH]2)cc1 (configuration not stated)
OUT: -3.19
